- TARGET_OR_TEST_SYSTEM: T1, PVRIG (FACS-based competition assay of FIGS. 7 and 15) (Homo sapiens, UniProt Q6DKI7)
- T1 construct: made because the format of the assay is only described in U.S. Ser. No. 15/048,967; also called human PVRIG
- T1 sequence (receptor, looked up): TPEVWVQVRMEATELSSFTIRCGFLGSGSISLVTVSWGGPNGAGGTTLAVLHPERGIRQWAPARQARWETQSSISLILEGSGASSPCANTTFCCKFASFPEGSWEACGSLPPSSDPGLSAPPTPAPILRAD
- ASSAY_METHOD_TEXT: FACS-based competition assay of PVRIG blocking; format and competitor not given
MEASURED_METRIC: log10 of IC50 (log10 of the value in nM)
The figures below represent log10 of IC50, where IC50 is stated in nM.

Quick one: give measured log10 of IC50 for CHA.7.549 (antibody, V domains shown) VH: QVQLQQPGTELVKPGASVKLSCKASGFTFTTHWMHWVRQRPGQGLEWIGNIYPSNGGSNYNEKFKTKATLTVDRSSSTAYMHLSSLTSEDSAVYYCARRVNWDGYYFDYWGQGTTLTVSS VL: DIVMTQSQKFMSTSVGDRVSVTCKASQNVGTNVAWYQQKPGQSPKLLIYSASYRYSGVPDRFTGSGSGTDFTLTISNVQSEDLADYFCQQYNSYPLTFGGGTKLEIK
1.56

Tell me measured log10 of IC50 for CHA.7.535 (antibody, V domains shown) VH: EVQLQQSGPELVKPGASVKISCKTSGYTFTKNTMHWVRQSHGKSLEWIGGINPNSGGASFNQKFMGKATLTVDKSSSTAYMELRSLTSEDSAVYYCARDGYDGDWFFDVWGAGTTVTVSS VL: DIQMNQSPFSLSASLGDTVTITCHASQNIYVWLSWYQQKPGNIPKLLIYKASDLHTGVPSRFSGSGSGTDFTLNISSLQPEDIATYYCQQGQSYPRTFGGGTKLEIK please.
2.91

Please look at this binder and report its log10 of IC50: CHA.7.550 (antibody, V domains shown) VH: QVQLQESGTELVKPGASVKLSCKASGYTFTSYWIHWVKQRPGQGLEWIGNINPSNGGTNYNEKFKSKAALTVDKSSSTAYMQLSSLTSEDSAVYYCARRGLPYFFDYWGQGTTLTVSS VL: DIVMTQSQKFMSTSVGDRVSVTCKGSQNVGYNVAWYQQKPGQSPKALVYSASDRHSGVPDRFAGSGSGTDFTLTISNVQSEDLAEYFCQQYNSYPLTFGAGTKLELK
1.77

Quick one: give measured log10 of IC50 for CHA.7.548 (antibody, V domains shown) VH: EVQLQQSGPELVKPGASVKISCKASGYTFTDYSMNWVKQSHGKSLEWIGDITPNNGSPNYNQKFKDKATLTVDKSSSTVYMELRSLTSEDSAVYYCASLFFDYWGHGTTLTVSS VL: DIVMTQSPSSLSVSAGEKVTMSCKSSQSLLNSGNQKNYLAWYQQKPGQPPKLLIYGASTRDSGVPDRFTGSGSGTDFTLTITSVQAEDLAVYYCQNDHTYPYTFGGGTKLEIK
1.28

Fill in reported log10 of IC50 for this entry: CHA.7.546 (antibody, V domains shown) VH: QIQLVQSGPELKKPGETVKISCKASGYTFTTYGMSWVKQAPGKGLKWMGWINTYSGVSTYADDFEGRFAFSLETSVSTAYLQINNLKNEDTATYFCARLGRGSTTGAGYLDVWGTGTTVTVSS VL: DIVLTQSPAIMSASPGEKVSMTCSASSSVSSWYLHWYQQKSGASPKLWIYGTSNLASGVPARFSGSGSGTSYSLTISSVEAEDAATYYCQQYHSDPYTFGSGTKLEIK
1.96
